Below, each entry is listed with its recorded Emax.
# system-tested: glutathione-S-transferase (GST) tagged LXRalpha LBD (ligand binding domain) (Homo sapiens, UniProt Q13133)
# Construct: purchased Invitrogen pv4655
# Sequence (Q13133 209-447 limits assumed): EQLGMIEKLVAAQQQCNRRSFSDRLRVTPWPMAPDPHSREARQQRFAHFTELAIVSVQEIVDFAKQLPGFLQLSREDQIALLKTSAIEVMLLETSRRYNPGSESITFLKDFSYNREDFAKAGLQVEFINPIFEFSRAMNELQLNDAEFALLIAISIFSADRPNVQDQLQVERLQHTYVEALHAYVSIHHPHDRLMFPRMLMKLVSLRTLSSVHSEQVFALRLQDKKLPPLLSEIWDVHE
# assay-procedure: LanthaScreen TR-FRET Liver X Receptor Coactivator Assay, co-activator recruitment to LXRalpha LBD
# Format: biochemical
# study-conditions: efficacy at max dose, in relation to reference dual agonist T0901317; read-out: LXR alpha Activity @ max dose (%)
Kindly report the value followed by its unit.

{"columns": ["molecule", "Emax"],
 "data": [
  ["CCOc1cccc([C@@](O)(C(=O)N2CCC(CC3CCN(c4ccc(C(=O)N(C)C)cc4)CC3)CC2)C(F)(F)F)c1", "4%"]
]}

The value of Emax measured for the molecule `CC(C)Oc1cccc([C@@](O)(C(=O)N2CCC(CC3CCN(c4ccc(C(=O)N(C)C)cc4)CC3)CC2)C(F)(F)F)c1` turned out to be 3%

The value of Emax measured for the molecule `CN(C)C(=O)c1ccc(N2CCC(CC3CCN(C(=O)[C@](O)(c4cccc(OC(F)F)c4)C(F)(F)F)CC3)CC2)nc1Cl` turned out to be 17%

The value of Emax measured for the molecule COc1cccc(C(O)(C(=O)N2CCC(OC3CCN(c4ccc(C(=O)N(C)C)c(Cl)c4)CC3)CC2)C(F)(F)F)c1 (centres unmarked) turned out to be 0%

The value of Emax measured for the molecule CN(C)C(=O)c1ccc(N2CCC(CC3CCN(C(=O)C(O)(c4ccc(C(F)(F)F)cc4)C(F)(F)F)CC3)CC2)cc1Cl (centres unmarked) turned out to be 0%

The value of Emax measured for the molecule `CN(C)C(=O)c1ccc(N2CCC(OC3CCN(C(=O)C4(c5ccccc5)CCC4)CC3)CC2)cc1Cl` turned out to be 19%

----------
Below, each entry is listed with its recorded log10 EC50.
# system-tested: glutathione-S-transferase (GST) tagged LXRbeta LBD (ligand binding domain) (Homo sapiens)
# Construct: purchased Invitrogen pv4658.pps
# assay-procedure: LanthaScreen TR-FRET Liver X Receptor Coactivator Assay, co-activator recruitment to LXRbeta LBD
# Assay type: biochemical
# study-conditions: potency (Inflection Point, IP), co-activator recruitment to LXRbeta LBD, in relation to T0901317; read-out: LXR beta IP
# From the text: […]
Quick note: numbers are log10 of EC50, with nM as the unit.

Reference set (3 entries):
{"columns": ["molecule", "system-tested", "log10 EC50"],
 "data": [
  ["COc1cccc([C@@](O)(C(=O)N2CCC(CC3CCN(c4ccc(C(=O)N(C)C)c(Cl)c4)CC3)CC2)C(F)(F)C(F)(F)F)c1", "glutathione-S-transferase (GST) tagged LXRbeta LBD (ligand binding domain) (Homo sapiens)", 1.32],
  ["CN(C)C(=O)c1ccc(N2CCC(CC3CN(C(=O)[C@](O)(c4cccc(OC(F)(F)F)c4)C(F)(F)F)C3)CC2)cc1Cl [Example 2-63]", "glutathione-S-transferase (GST) tagged LXRbeta LBD (ligand binding domain) (Homo sapiens)", 1.32],
  ["CNC(=O)c1ccc(N2CCC(CC3CCN(C(=O)[C@](O)(c4cccc(C(F)(F)F)c4)C(F)(F)F)CC3)CC2)cc1Cl", "glutathione-S-transferase (GST) tagged LXRbeta LBD (ligand binding domain) (Homo sapiens)", 1.71]
]}

The value of log10 EC50 measured for the molecule `CNC(=O)c1ccc(N2CCC(CC3CCN(C(=O)[C@](O)(c4cccc(OC(F)(F)F)c4)C(F)(F)F)CC3)CC2)nc1Cl` turned out to be 1.41

The value of log10 EC50 measured for the molecule `CCc1cccc([C@@](O)(C(=O)N2CCC(CC3CCN(c4ccc(C(=O)NC)c(Cl)c4)CC3)CC2)C(F)(F)F)c1` turned out to be 1.34

The value of log10 EC50 measured for the molecule CC(C)c1cccc(C(O)(C(=O)N2CCC(CC3CCN(c4ccc(C(=O)N(C)C)c(Cl)n4)CC3)CC2)C(F)(F)F)c1 (centres unmarked) turned out to be 1.11

The value of log10 EC50 measured for the molecule CN(C)C(=O)c1ccc(N2CCC(CC3CCN(C(=O)C(N)(c4ccccc4)C(F)(F)F)CC3)CC2)nc1Cl (centres unmarked) turned out to be 1.49

The value of log10 EC50 measured for the molecule CNC(=O)c1ccc(N2CCC(CC3CCN(C(=O)C(O)(c4cccnc4)C(F)(F)F)CC3)CC2)nc1Cl (centres unmarked) turned out to be 2.00

The value of log10 EC50 measured for the molecule Cc1cc(N2CCC(CC3CCN(C(=O)C(O)(c4cccc(Cl)c4)C(F)(F)F)CC3)CC2)ncc1C(=O)N(C)C (centres unmarked) turned out to be 1.72

The value of log10 EC50 measured for the molecule `CN(C)C(=O)c1ccc(N2CCC(CCC3CCN(C(=O)[C@](O)(c4ccccc4)C(F)(F)F)CC3)CC2)cc1Cl` turned out to be 2.70

The value of log10 EC50 measured for the molecule `Cc1ccccc1C1(C(=O)N2CCC(CC3CCN(c4ccc(C(=O)N(C)C)c(Cl)n4)CC3)CC2)CCC1` turned out to be 1.30

The value of log10 EC50 measured for the molecule `CCOc1cccc([C@@](O)(C(=O)N2CCC(CC3CCN(c4ccc(C(=O)N(C)C)c(C)c4)CC3)CC2)C(F)(F)F)c1` turned out to be 0.95

The value of log10 EC50 measured for the molecule `COc1cccc([C@@](O)(C(=O)N2CCC(CC3CN(c4ccc(C(=O)N(C)C)c(C5CC5)n4)C3)CC2)C(F)(F)F)c1` turned out to be 3.16

The value of log10 EC50 measured for the molecule `CN(C)C(=O)c1ccc(N2CCC(CC3CCN(C(=O)C4(c5ccccc5)CCCC4)CC3)CC2)nc1Cl` turned out to be 1.76

----------
# system-tested: glutathione-S-transferase (GST) tagged LXRbeta LBD (ligand binding domain) (Homo sapiens, UniProt P55055)
# Construct: purchased Invitrogen pv4658.pps
# Sequence (P55055 222-460 limits assumed): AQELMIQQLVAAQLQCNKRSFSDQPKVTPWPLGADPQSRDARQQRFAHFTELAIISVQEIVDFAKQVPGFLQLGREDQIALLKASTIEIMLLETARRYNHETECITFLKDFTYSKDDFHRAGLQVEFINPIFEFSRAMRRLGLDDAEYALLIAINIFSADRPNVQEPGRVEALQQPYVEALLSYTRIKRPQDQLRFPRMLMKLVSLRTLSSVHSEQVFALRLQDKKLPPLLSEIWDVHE
# assay-procedure: LanthaScreen TR-FRET Liver X Receptor Coactivator Assay, co-activator recruitment to LXRbeta LBD
# Format: biochemical
# study-conditions: potency (Inflection Point, IP), co-activator recruitment to LXRbeta LBD, in relation to T0901317; read-out: LXR beta IP
Below, each entry is listed with its recorded pEC50.
Scale: pEC50 equals -log10([C]), with [C] in mol/L.

{"columns": ["compound", "pEC50"],
 "data": [
  ["CN(C)C(=O)c1ccc(N2CCC(CC3CCN(C(=O)[C@](O)(c4cccc(F)c4)C(F)F)CC3)CC2)cc1Cl", 7.92],
  ["CNC(=O)c1ccc(N2CCC(CC3CCN(C(=O)C(O)(c4cccc(C#N)c4)C(F)(F)F)CC3)CC2)nc1Cl (stereo not shown)", 7.70],
  ["CN(C)C(=O)c1ccc(N2CCC(CC3CCN(C(=O)[C@@](O)(c4cccc(Cl)c4)C(F)(F)F)CC3)CC2)nc1Cl", 7.60]
]}

Shifting focus to the compound that follows.
The value of pEC50 measured for the compound `CN(C)C(=O)c1ccc(N2CCC(CC3CCN(C(=O)[C@](O)(c4ccccc4)C(F)(F)F)CC3)CC2)cc1` turned out to be 7.24

----------
# system-tested: glutathione-S-transferase (GST) tagged LXRalpha LBD (ligand binding domain) (Homo sapiens, UniProt Q13133)
# Construct: purchased Invitrogen pv4655
# assay-procedure: LanthaScreen TR-FRET Liver X Receptor Coactivator Assay, co-activator recruitment to LXRalpha LBD
# Assay type: biochemical
# study-conditions: efficacy at max dose, in relation to reference dual agonist T0901317; read-out: LXR alpha Activity @ max dose (%)
Below, each entry is listed with its recorded Emax.
The reply should contain only the number, in %.

Reference set (3 entries):
{"columns": ["compound", "Emax / %"],
 "data": [
  ["COc1cc(F)cc([C@@](O)(C(=O)N2CCC(CC3CCN(c4ccc(C(=O)N(C)C)c(C)c4)CC3)CC2)C(F)(F)F)c1 [Example 2-152]", 18],
  ["CCC(O)(C(=O)N1CCC(CC2CCN(c3ccc(C(=O)N(C)C)c(Cl)c3)CC2)CC1)c1ccccc1 (stereo not shown) [Example 2-32]", 19],
  ["CN(C)C(=O)c1ccc(N2CCC(CC3CCN(C(=O)[C@](O)(c4cccc(Cl)c4)C(F)(F)F)CC3)CC2)nc1Cl [Example 7-69]", 30]
]}

Shifting focus to the compound that follows.
The value of Emax measured for the compound CN(C)C(=O)c1ccc(N2CCC(CC3CCN(C(=O)[C@](O)(c4cccc(C5CC5)c4)C(F)(F)F)CC3)CC2)cc1Cl [Example 2-96] turned out to be 20
